Tested on: P93_24
experimental details: qHTS profiling for inhibitors of Plasmodium falciparum proliferation (AID 504749); further: nearly all actives have a fitted effect of over 60% in size
conditions used: P. falciparum in erythrocytes, SYBR Green DNA, 72 h; series mostly up to 28.7 µM
Results filed as inconclusive are left out. Calls of active or inactive are those of the source. The call rests on the fitted dose curve; in most records, active means well fitted inhibition curve with a large enough effect; inconclusive means small, poorly fitted or top-dose-only effect; inactive means flat fitted curve, though single readings scatter.
Allowed answers: active, inactive

These solved cases illustrate the format of a correct answer.
CN1C2CCC1CC(OC(c1ccccc1)c1ccc(Cl)cc1)C2 (centres undefined)	active
CCOc1ccc2c3c1O[C@H]1[C@@H](O)C=C[C@H]4[C@@H](C2)N(C)CC[C@@]341	inactive
CC(C)Nc1ccc(Nc2ccccc2)cc1	active

Kindly review the next molecule as well.
(Q) Name the outcome recorded for `O=[N+]([O-])c1cc(I)c(O)c(I)c1` in the assay.
(A) inactive
